Just for reference, ChEMBL document CHEMBL1122175 is where these values come from.

Assay: Inhibition of rat brain particulate cAMP phosphodiesterase (Inactive)

- mol: "CCOc1cc(OCC)c2c(=O)c(OCCO)c(-c3ccc(OCC)c(OCC)c3)oc2c1"
  I 50: "Not Active"
- mol: "CCCOc1cc(OCCC)c2c(=O)c(OCCC)c(-c3ccc(OCCC)c(OCCC)c3)oc2c1"
  I 50: "Not Active"
- mol: "CCOc1cc(OCC)c2c(=O)c(O)c(-c3ccc(OCC)c(OCC)c3)oc2c1"
  I 50: "Not Active"

====

Target: Phosphodiesterase 1 (Rattus norvegicus, UniProt Q63421+Q9EPR9+Q01066)
Assay: Inhibition of rat brain cytosolic cGMP phosphodiesterase

- mol: "O=c1c(O)c(-c2ccc(O)c(O)c2)oc2cc(O)cc(O)c12"
  system.tested: "Phosphodiesterase 1 (Rattus norvegicus, UniProt Q63421+Q9EPR9+Q01066)"
  qualifier.sign: "="
  I 50, µM: 275
- mol: "CCOc1cc(OCCN(CC)CC)c2c(=O)c(OCC)c(-c3ccc(OCC)c(OCC)c3)oc2c1"
  system.tested: "Phosphodiesterase 1 (Rattus norvegicus, UniProt Q63421+Q9EPR9+Q01066)"
  qualifier.sign: "="
  I 50, µM: 58
- mol: "O=c1c(OCCO)c(-c2ccc(OCCO)c(OCCO)c2)oc2cc(OCCO)cc(OCCO)c12"
  system.tested: "Phosphodiesterase 1 (Rattus norvegicus, UniProt Q63421+Q9EPR9+Q01066)"
  qualifier.sign: "="
  I 50, µM: 2800
- mol: "CCOc1cc(OCCBr)c2c(=O)c(OCC)c(-c3ccc(OCC)c(OCC)c3)oc2c1"
  system.tested: "Phosphodiesterase 1 (Rattus norvegicus, UniProt Q63421+Q9EPR9+Q01066)"
  qualifier.sign: ">"
  I 50, µM: 1000

====

Assay: Inhibition of rat brain cytosolic cAMP phosphodiesterase
Settings: read-out: I 50
pIC50: −log10 of the molar value.
# if value of pIC50 reaches 3, tag t; if it stays below, tag f

- molecule: "CC(=O)Oc1cc(OC(C)=O)c2c(=O)c(OC(C)=O)c(-c3ccc(OC(C)=O)c(OC(C)=O)c3)oc2c1"
  label.value: "t"
- molecule: "CCOc1cc(OCC)c2c(=O)c(OCC(=O)O)c(-c3ccc(OCC)c(OCC)c3)oc2c1"
  label.value: "t"
- molecule: "CCOc1cc(OCC)c2c(=O)c(OCC)c(-c3ccc(OCC)c(OCC)c3)oc2c1"
  label.value: "t"
- molecule: "CCCCOc1cc(CC2CNC(=O)N2)ccc1OC (stereo not given)"
  label.value: "f"
- molecule: "CCOc1cc(OCCN(CC)CC)c2c(=O)c(OCC)c(-c3ccc(OCC)c(OCC)c3)oc2c1"
  label.value: "t"

====

Assay: Inhibition of rat brain cytosolic cAMP phosphodiesterase
Conditions: read-out: I 50
pIC50: −log10 of the molar value.
# if value of pIC50 reaches 4, tag t; if it stays below, tag f

- compound: "CCOc1cc(OCCBr)c2c(=O)c(OCC)c(-c3ccc(OCC)c(OCC)c3)oc2c1"
  label.value: "t"
- compound: "COc1cc(OC)c2c(=O)c(OC)c(-c3ccc(OC)c(OC)c3)oc2c1"
  label.value: "t"
- compound: "O=c1c(OCCO)c(-c2ccc(OCCO)c(OCCO)c2)oc2cc(OCCO)cc(OCCO)c12"
  label.value: "f"
- compound: "CCOc1cc(OCC(=O)O)c2c(=O)c(OCC)c(-c3ccc(OCC)c(OCC)c3)oc2c1"
  label.value: "t"
- compound: "O=c1c(OCCBr)c(-c2ccc(OCCBr)c(OCCBr)c2)oc2cc(OCCBr)cc(OCCBr)c12"
  label.value: "f"
- compound: "CCOc1cc(OCC)c2c(=O)c(OCCN(CC)CC)c(-c3ccc(OCC)c(OCC)c3)oc2c1"
  label.value: "t"
- compound: "CCCOc1ccccc1-c1nc2[nH]nnc2c(=O)[nH]1 [ZAPRINAST]"
  label.value: "t"
